Target Or Test System: UniProtKB P30291
Protocol: Wee1 time-resolved fluorescence equilibrium binding assay (displacement of Oregon Green-labeled ATP-competitive kinase probe)
Protocol: Wee1 kinase was assayed using a time-resolved fluorescence equilibrium binding assay monitoring displacement of a rapidly reversible Oregon Green-labeled ATP-competitive kinase probe (N-(2-(2-(2-(4-(4-(5-chloro-4-(2-(1-hydroxycyclobutyl)thiazol-5-yl)-1H-pyrrolo[2,3-b]pyridin-2-yl)phenyl)piperazin-1-yl)ethoxy)ethoxy)ethyl)-2′,7′-difluoro-3′,6′-dihydroxy-3-oxo-3H-spiro[isobenzofuran-1,9′-xanthene]-5-carboxamide) by competitive Wee1 inhibitors.
Below: a set of entries, each annotated with reported Ki.
State just the number; it will be interpreted in nM.

Examples with their reported Ki follow.
COc1cccc(-c2nn(-c3ccccc3)c(=O)c3cnc(Nc4ccc(N5CCN(C)CC5)cc4)nc23)c1 has a reported Ki of 2

CC(=O)N1CCc2cc(Nc3ncc4c(=O)n(-c5c(Cl)cccc5Cl)nc(C(F)F)c4n3)ccc2C1 has a reported Ki of 0.17

O=c1c2cnc(Nc3ccc4c(c3)CNCC4)nc2cnn1-c1c(Cl)cccc1Cl has a reported Ki of 0.93

CN1CCN(c2ccc(Nc3ncc4c(=O)n(-c5c(F)cccc5Cl)nc(-c5ccccn5)c4n3)cc2)CC1 has a reported Ki of 680

CN1CCN(c2ccc(Nc3ncc4c(=O)n(-c5c(Cl)cccc5Cl)nc(-c5cnn(C)c5)c4n3)cc2)CC1 has a reported Ki of 0.1

***
CCc1nn(-c2c(Cl)cccc2Cl)c(=O)c2cnc(Nc3ccc(N4CCCN(C)CC4)c(C)c3)nc12 has a reported Ki of 0.63

----------
Below: a set of entries, each annotated with reported Ki.
Target Or Test System: GST-tagged-Wee1 kinase (Homo sapiens, UniProt P30291)
Sequence (P30291 whole entry): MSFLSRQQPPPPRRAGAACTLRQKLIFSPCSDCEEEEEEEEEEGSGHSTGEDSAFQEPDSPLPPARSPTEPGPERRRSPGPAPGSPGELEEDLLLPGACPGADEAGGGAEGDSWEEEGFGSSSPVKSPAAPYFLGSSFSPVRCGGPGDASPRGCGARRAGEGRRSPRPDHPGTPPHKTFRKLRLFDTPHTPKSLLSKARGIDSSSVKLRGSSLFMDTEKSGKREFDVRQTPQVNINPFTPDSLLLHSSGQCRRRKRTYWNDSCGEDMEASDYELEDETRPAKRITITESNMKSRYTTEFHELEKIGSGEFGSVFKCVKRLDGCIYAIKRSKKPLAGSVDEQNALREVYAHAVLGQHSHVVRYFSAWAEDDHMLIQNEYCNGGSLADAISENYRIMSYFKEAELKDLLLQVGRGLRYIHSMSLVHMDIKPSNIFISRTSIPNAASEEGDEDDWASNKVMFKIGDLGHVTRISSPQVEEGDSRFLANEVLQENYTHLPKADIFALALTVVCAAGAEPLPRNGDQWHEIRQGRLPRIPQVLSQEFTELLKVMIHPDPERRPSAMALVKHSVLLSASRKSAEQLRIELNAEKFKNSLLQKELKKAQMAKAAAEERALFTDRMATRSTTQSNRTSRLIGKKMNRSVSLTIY
Protocol: Wee1 time-resolved fluorescence equilibrium binding assay (displacement of Oregon Green-labeled ATP-competitive kinase probe)
State just the number; it will be interpreted in nM.

Examples with their reported Ki follow.
Cc1ccccc1-n1nc(-c2cccs2)c2nc(Nc3ccc(CN(C)C)cc3)ncc2c1=O has a reported Ki of 2

CN1CCN(c2ccc(Nc3ncc4c(=O)n(-c5ccccc5Cl)nc(-c5ccncn5)c4n3)cc2)CC1 has a reported Ki of 2

O=c1c2cnc(Nc3ccc(N4CCNCC4)cc3)nc2c(C(F)(F)F)nn1-c1c(Cl)cccc1Cl has a reported Ki of 0.35

***
CN1CCN(c2ccc(Nc3ncc4c(=O)n(-c5ccccc5Cl)nc(-c5cccc(N6CCCC6)n5)c4n3)cc2)CC1 has a reported Ki of 6

CN1CCN(c2ccc(Nc3ncc4c(=O)n(-c5c(Cl)cccc5Cl)nc(-c5ccnc(C(=O)N6CCCC6)c5)c4n3)cc2)CC1 has a reported Ki of 0.3

O=c1c2cnc(Nc3ccc4c(c3)CNCC4)nc2c(C2CC2)nn1-c1c(Cl)cccc1Cl has a reported Ki of 0.41

CN1CCN(c2ccc(Nc3ncc4c(=O)n(-c5ncccc5Cl)nc(-c5ccccn5)c4n3)cc2)CC1 has a reported Ki of 1.8

CN1CCN(c2ccc(Nc3ncc4c(=O)n(-c5c(Cl)cccc5Cl)nc(-c5cccc(-c6ccc[nH]6)c5)c4n3)cc2)CC1 has a reported Ki of 8

O=c1c2cnc(Nc3ccc4c(c3)CNCC43CC3)nc2c(CO)nn1-c1c(Cl)cccc1Cl has a reported Ki of 0.15

----------
Target Or Test System: GST-tagged-Wee1 kinase (Homo sapiens, UniProt P30291)
Protocol: Wee1 time-resolved fluorescence equilibrium binding assay (displacement of Oregon Green-labeled ATP-competitive kinase probe)
Using Ki as the sorting value, the categories are bin 1: < 300 pM; bin 2: ≥ 300 pM and < 800 pM; bin 3: ≥ 800 pM

Band for Cc1nn(-c2c(Cl)cccc2Cl)c(=O)c2cnc(Nc3ccc4c(c3)CN(S(C)(=O)=O)CC4(C)C)nc12 ?
bin 2

Band for CN1CCN(c2ccc(Nc3ncc4c(=O)n(-c5ccccc5Cl)nc(-c5cccc(Br)c5)c4n3)cc2)CC1 ?
bin 3

Band for CN1Cc2cc(Nc3ncc4c(=O)n(-c5c(Cl)cccc5Cl)nc(C5CC5)c4n3)ccc2C2(CC2)C1 ?
bin 1

Band for CCCc1nn(-c2ccccc2C)c(=O)c2cnc(Nc3ccc(N4CCN(C)CC4)cc3)nc12 ?
bin 3

Band for Cc1nn(-c2c(Cl)cccc2Cl)c(=O)c2cnc(Nc3ccc4c(c3)CN(C)CC4(C)C)nc12 ?
bin 2

Band for CN1CCN(c2ccc(Nc3ncc4c(=O)n(-c5c(Cl)cccc5Cl)nc(C5CCC5)c4n3)cc2)CC1 ?
bin 3

***
Band for Cc1nn(-c2c(Cl)cccc2Cl)c(=O)c2cnc(Nc3ccc(N4CCN(C5COC5)CC4)cc3)nc12 ?
bin 2

Band for CN1Cc2cc(Nc3ncc4c(=O)n(-c5c(Cl)cccc5Cl)nc(-c5cccnc5)c4n3)ccc2C2(CC2)C1 ?
bin 1

Band for Cc1nn(-c2c(Cl)cccc2Cl)c(=O)c2cnc(Nc3cccc(N4CCN(C)CC4)c3)nc12 ?
bin 2

Band for CS(=O)(=O)N1CCN(c2ccc(Nc3ncc4c(=O)n(-c5c(Cl)cccc5Cl)nc(-c5ccncc5)c4n3)cc2)CC1 ?
bin 2

Band for CN1CCN(c2ccc(Nc3ncc4c(=O)n(-c5c(Cl)cccc5Cl)nc(-c5cccc(O)n5)c4n3)cc2)CC1 ?
bin 3

Band for C=CCn1nc(-c2ccco2)c2nc(Nc3ccc(N4CCN(C(C)C)CC4)c(OC)c3)ncc2c1=O ?
bin 3

Band for C=CCn1nc(-c2cccc(OC)c2)c2nc(Nc3ccc(N4CCN(C)CC4)cc3)ncc2c1=O ?
bin 3

Band for C=CCn1nc(CCC)c2nc(Nc3ccc(N4CCN(C)CC4)cc3)ncc2c1=O ?
bin 3
